Source listed as ChEMBL document CHEMBL3988442.

Please go through the items and note down their Percent Effect.
- assay.target: Proteasome subunit beta (Trypanosoma cruzi)
- Sequence (whole entry): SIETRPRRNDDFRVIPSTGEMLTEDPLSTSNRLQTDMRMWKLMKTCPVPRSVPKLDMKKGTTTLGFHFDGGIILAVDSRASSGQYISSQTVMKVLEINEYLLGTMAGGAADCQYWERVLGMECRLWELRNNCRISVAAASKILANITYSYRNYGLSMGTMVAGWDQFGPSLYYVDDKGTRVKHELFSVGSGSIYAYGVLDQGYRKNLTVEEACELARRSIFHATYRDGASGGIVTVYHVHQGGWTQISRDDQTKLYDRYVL
- assay.name: Trypanosoma cruzi proteasome chymotrypsin-like activity (TcProtChymo) assay.
- Format: functional
- Set-up: scale not given: in the data most compounds retested in dose-response had high values
- condition.description: 9.37 µM
Numeric answer only, unit % assumed.

[Q] // fetch Percent Effect for COCCCn1c(CN2CCCC(O)C2)cnc1S(=O)(=O)C1CCCC1 (stereo unspecified) ; system: Proteasome subunit beta (Trypanosoma cruzi)
[A] 3.99

[Q] # lookup: Proteasome subunit beta (Trypanosoma cruzi) Percent Effect, key = Cc1nn(C)c(N(C)C)c1CNC1CCOc2c(F)cccc21 (stereo unspecified)
[A] 8.02

[Q] // output Percent Effect; input NC(=O)NCCC(=O)NCc1cccnc1N1CCc2ccccc2C1 ; system Proteasome subunit beta (Trypanosoma cruzi)
[A] 4.89

[Q] Provide measured Percent Effect on Proteasome subunit beta (Trypanosoma cruzi) for Cc1ncc2c(n1)CN(CC(=O)Nc1nncs1)CC2 please.
[A] 6.01

[Q] Quote Proteasome subunit beta (Trypanosoma cruzi) Percent Effect for entry COc1ccc(-n2ccc(C(=O)N3CCC(C(N)=O)C3)n2)cc1 (stereo unspecified) .
[A] -1.44

[Q] Provide Percent Effect, recorded with Proteasome subunit beta (Trypanosoma cruzi), of O=C(NCCn1ccnc1)c1ccn(-c2cccc(F)c2)n1
[A] 2.28

---

- assay.target: Arginase-2, mitochondrial (Homo sapiens)
- assay.name: in vitro enzyme assay to detect the production of urea directly proportional to the activity of Arginase II
- Format: functional
- Set-up: scale not given: in the data most compounds retested in dose-response had high values
- condition.description: 33.3 µM
Please go through the items and note down their Percent Effect.
Please reply with the bare figure in % and do not write the unit itself.

[Q] Hello, please tell me recorded Percent Effect for this one: CC(C)c1ncc2c(n1)CN(Cc1nc(Cc3ccccc3)no1)CC2
[A] -2.77

[Q] Return Percent Effect for the following molecule: CC(C)Oc1cccc(CNC(=O)NC(C)(C(=O)O)c2ccco2)c1 (configuration not stated)
[A] -1.08

[Q] Tell me measured Percent Effect for CSCC(CCO)NC(=O)Nc1cc(C)ccc1C (configuration not stated) please.
[A] 4.09

[Q] Look up and report measured Percent Effect for this entry: COc1ccc(F)c(CN2CCC(c3cc(O)nc(C)n3)C2)c1 (configuration not stated)
[A] -3.94

[Q] Give the value of Percent Effect reported for the following: Cc1ccc(S(=O)(=O)NCCNC(=O)c2ccoc2)cc1F
[A] 5.21

[Q] Supply reported Percent Effect belonging to this molecule: Cn1ccnc1CN1CCCN(C(=O)c2ccc3c(c2)COC3)CC1
[A] 3.24

[Q] Recall and state the measured Percent Effect for Cc1nc(Nc2nccs2)cc(C2CCCN2C2CCOCC2)n1 (configuration not stated) .
[A] -3.48

[Q] For the molecule COc1cc(C(=O)N2CCC(c3n[nH]c(C4CC4)n3)CC2)ccc1C , report Percent Effect.
[A] 2.37

[Q] Query Percent Effect for CN(C)C(CNS(=O)(=O)c1ccc(F)cc1F)c1cccn1C (configuration not stated)
[A] 2.73

[Q] For the molecule COc1cccc(C(=O)Nc2cc(CC(C)C)nn2C)c1 , give its reported Percent Effect.
[A] -6.41

[Q] Let me know recorded Percent Effect for Cc1cc2c(=O)n3c(nc2s1)CCN(C(=O)c1cnn(C)c1C)CC3 , thanks.
[A] -6.26

[Q] Provide only the value of recorded Percent Effect for CC(C(N)=O)N(C)CCCc1cc(-c2ccccc2)no1 (configuration not stated)
[A] -0.185

[Q] State, in one line, measured Percent Effect of COCCCn1ccnc1-c1cnc(OC)nc1
[A] -3.33

[Q] Specify Percent Effect for N#Cc1cn(CC(=O)NC2CC2)c2ccc(Br)cc2c1=O and stop.
[A] 2.6

[Q] Give the reported Percent Effect for this molecule. Cn1cc(N2CCC3(CCN(S(=O)(=O)C4CC4)C3)C2=O)cn1 (configuration not stated)
[A] -37.5

[Q] Give the reported Percent Effect for this molecule. Cc1ccc(C(=O)NCCCNS(C)(=O)=O)c(=O)[nH]1
[A] 5

[Q] Using known records, supply Percent Effect for COCCN1C(=O)CO[C@H]2CN(Cc3c[nH]nc3-c3ccccc3)C[C@@H]21
[A] -5.8
